Result Type: melting point

> print(dat)
                                   molecule   assay.result
1  O=C(OCCN1C(=O)C=C(c2ccccc2)C1=O)c1cc([N+](=O)[O-])cc([N+](=O)[O-])c1  179 to 181 °C
2  CCOC(=O)CCNC(=O)c1n[nH]cc1NC(=O)c1cccc(C)n1  228 to 229 °C
3             Cc1oc(-c2ccc(F)cc2)cc1CC(=O)O    52 to 53 °C
4               N#Cc1cc[nH]c1-c1cc2ccccc2o1  157 to 160 °C
5  NC(=O)c1ccc(OCCNCC(O)COc2ccc(-c3csnn3)cc2)cc1 (stereo unspecified)  173 to 174 °C

Now consider the entry below.
(Q) Give the reported melting point for this molecule. COC(OC)c1cnc(-c2ccccc2)nc1N
(A) 116 to 118 °C

* * *

Below is a list of entries, each paired with its recorded melting point value.

Consider the reported melting point for these compounds:
> print(dat)
                                   compound     assay.result
1                       O=C(O)c1cnc2ccoc2c1    238 to 239 °C
2            OCCNc1cc(N2CCCC2)nc(N2CCCC2)n1    150 to 152 °C
3  CCC(C)c1ccc2c(c1)C(=O)N(c1ccc3c(ccn3C)c1)C2 (stereo not given)    146 to 147 °C
4           CCOC(=O)CCSc1nnsc1-c1ccc(Cl)cc1  71.5 to 73.5 °C
5  C=CCOC(=O)/C=C/c1c[nH]c2ccc(OCc3ccccc3)cc12      73 to 77 °C

Now consider the entry below.
(Q) Give the reported melting point for this compound. O=C(CC1NC(=O)c2ccsc2-n2cccc21)c1ccccc1 (stereo not given)
(A) 205 °C

* * *

Below is a list of entries, each paired with its recorded melting point value.

Consider the reported melting point for these compounds:
> print(dat)
                                   compound    result.type   assay.result
1  CS(=O)(=O)c1ccc(-c2cnn(-c3ccc(F)c(F)c3)c(=O)c2Cc2ccccc2)cc1  melting point  166 to 168 °C
2  CN(C)C(=O)C1CCc2c([nH]c3ccc(Cl)cc23)C1 (stereo unspecified)  melting point  176 to 177 °C
3                O=COCCCN1C(=O)c2ccccc2C1=O  melting point    68 to 70 °C
4  COC(=O)c1cc(-c2ccc(-c3ccccc3)cc2)nn(CC(C)C)c1=O  melting point  186 to 195 °C
5                          Cn1nnc2sccc2c1=O  melting point  104 to 108 °C

(Q) Give the reported melting point for this compound. O=C(NCc1ccccn1)c1cc(OCC(F)(F)F)ccc1OCc1ccccc1
(A) 115 to 116 °C

(Q) Give the reported melting point for this compound. Nc1nc2c(ncn2Cc2cccnc2)c(=O)[nH]1
(A) > 300 °C

(Q) Give the reported melting point for this compound. COC(=O)c1ccc(Nc2ccc([N+](=O)[O-])cc2C(=O)OC)cc1
(A) 205 to 206 °C

* * *

Below is a list of entries, each paired with its recorded melting point value.

Consider the reported melting point for these molecules:
> print(dat)
                                    molecule    result.type   assay.result
 1  CC(C)(C)CC(NC(=O)c1ccccc1)Nc1c(Nc2cccnc2Cl)c(=O)c1=O (stereo not given)  melting point  259 to 260 °C
 2  C[C@@H]1CCCN1CCCOc1ccc(C(=O)Cc2ccccn2)cc1  melting point    40 to 42 °C
 3  COc1ccc(S(=O)(=O)Nc2ccc(Cl)cc2/C=C/c2ccncc2)cc1  melting point  175 to 176 °C
 4  O=C1CCC(N2Cc3c(OCc4ccc5nccn5c4)cccc3C2=O)C(=O)N1 (stereo not given)  melting point  270 to 272 °C
 5  CCCCCCNC(=O)OCCCNC(=O)OC1CCN(C(=O)Oc2ccc(Oc3ccccc3)cc2)CC1  melting point    90 to 92 °C
 6  CCOC(=O)N1C=CC(c2c(-c3cccs3)nc3ccc(N4CCN(C(=O)OC(C)(C)C)CC4)nn23)C=C1  melting point         155 °C
 7  COc1ccc2c(c1)CCC2n1cc[nH]c1=S (stereo not given)  melting point  195 to 196 °C
 8  CC(C)C[C@H](NC(=O)CCC1CCCCC1)C(=O)N[C@@H](Cc1ccccc1)C(=O)CSCc1ccco1  melting point  116 to 118 °C
 9  CS(=O)(=O)c1cccc(NC(=O)c2cnn3c(Cl)cc(-c4ccc(Cl)cc4)nc23)c1  melting point  253 to 255 °C
10         CCCNS(=O)(=O)c1cc(C(=O)CBr)ccc1Cl  melting point          96 °C

(Q) Give the reported melting point for this molecule. CNc1nc(C)c(-c2sc(NC)nc2C)s1
(A) > 280 °C

(Q) Give the reported melting point for this molecule. O=C(O)C(O)=CC(=O)c1cc(Cc2ccccc2)cn(Cc2ccccc2)c1=O
(A) 158 to 159 °C

(Q) Give the reported melting point for this molecule. CC(=O)OC1C(OC(=O)c2ccccc2)C=C(C)C(=O)CC1(C)C (stereo not given)
(A) 94 to 95 °C

(Q) Give the reported melting point for this molecule. CCCCCCC(C)OC(=O)c1ccc(-c2ccc(-c3ccc(C(=O)OC(C)CCCCCC)cc3)cc2)cc1 (stereo not given)
(A) 81 to 82 °C

(Q) Give the reported melting point for this molecule. CN1CCC(c2[nH]c(=O)c3ccccc3c2-c2ccc(F)cc2)CC1
(A) 269 to 271 °C

(Q) Give the reported melting point for this molecule. CN(C)C(=O)c1c(-c2ccc(N(C)C)cc2)ccc2ccccc12
(A) 156 to 157 °C

(Q) Give the reported melting point for this molecule. COc1ccccc1C1(N)C(=O)Nc2ccc(Cl)cc21 (stereo not given)
(A) 220 to 224 °C

(Q) Give the reported melting point for this molecule. Cc1ccc([N+](=O)[O-])c(C=C2C(=O)NC(=O)N2C)c1C
(A) 195 to 198 °C

(Q) Give the reported melting point for this molecule. COc1ccc2c(c1C)CCc1ccc(-c3cccnc3)cc1C21N=C(N)N(C)C1=O (stereo not given)
(A) 235 to 239 °C

(Q) Give the reported melting point for this molecule. CC1(C)OC(C=Cc2cccc(C#N)c2)=CC1=O
(A) 155 to 157 °C

* * *

Below is a list of entries, each paired with its recorded melting point value.

Consider the reported melting point for these compounds:
> print(dat)
                                   compound   assay.result
1  COC(=O)c1cc2c(s1)[C@@H](N1CCCCC1=O)[C@H](OCc1ccccc1)C(C)(C)O2 (relative stereo)  144 to 145 °C
2  C=CCc1cc2c(c(CC=C)c1O)CCC(=O)N2CCCNC(N)=O  203 to 204 °C
3  COC[C@@H]1CC[C@H](c2ccc(F)cc2)N1S(=O)(=O)c1ccc(C)cc1 (racemic)         152 °C
4  COc1ccc(C(C(c2ccccc2)c2ccc(F)cc2)C(F)(F)F)cc1 (centres undefined)  113 to 120 °C
5  O=COC(CCl)(CC(Cl)(Cl)Cl)c1cc(Cl)cc(Cl)c1 (centres undefined)  115 to 117 °C

(Q) Give the reported melting point for this compound. C=CCSc1ccc(Oc2cccc(C)c2)nn1
(A) 48 to 50 °C

(Q) Give the reported melting point for this compound. Cn1ncnc1-n1cc(C(=O)O)c(=O)c2cc(F)c(Cl)nc21
(A) 238 to 242 °C

(Q) Give the reported melting point for this compound. Cc1cc(N2CCOCC2)c2cccc(OCc3c(Cl)ccc(-n4cccc4CNC(=O)C=Cc4ccc(C(=O)O)cc4)c3Cl)c2n1
(A) 174 to 180 °C

(Q) Give the reported melting point for this compound. COc1ccc(C(=O)Nc2cc(NC(=O)c3cccc(NC(C)=O)c3)ccc2C)cc1OC
(A) 187 to 188 °C

* * *

Result Type: melting point

> print(dat)
                                   compound   assay.result
1             c1ccc(-c2cnc(-c3ccccc3)s2)cc1  102 to 105 °C
2  O=c1nc(N2CCN(c3cccc(C(F)(F)F)c3)CC2)sc2c([N+](=O)[O-])cc(C(F)(F)F)cc12  201 to 203 °C
3  CCC(O)(c1ccccc1)c1cccc(N)c1 (stereo unspecified)    92 to 93 °C
4     COc1cc(Nc2nccc(-c3ccsc3)n2)cc(OC)c1OC         163 °C
5  COCOc1ccccc1-c1cc(-c2cccc(C(=O)OC)c2)c(C#N)c(N)n1  129 to 130 °C

(Q) Give the reported melting point for this compound. c1nc(Nc2ccc(N3CCOCC3)cc2)cc(NC2CCCCC2)n1
(A) 239 to 240 °C

(Q) Give the reported melting point for this compound. Cc1oc(-c2ccccc2)nc1COc1ccccc1CCl
(A) 103 to 104 °C

(Q) Give the reported melting point for this compound. CC(=O)N(O)CCc1ccc2c(c1)C(=O)c1ccccc1CO2
(A) 113 to 115 °C

(Q) Give the reported melting point for this compound. Nc1cc(=O)n(Cc2ccccc2Cl)[nH]1
(A) 153 °C

(Q) Give the reported melting point for this compound. COc1ccc(C(=O)c2c(N(C)C)sc3cc(OCc4ccccc4)ccc23)cc1OC
(A) 69 to 72 °C

(Q) Give the reported melting point for this compound. Brc1ccc2c(c1)C(c1ccc(Oc3ccccc3)cc1)(c1ccc(Oc3ccccc3)cc1)c1cc(Br)ccc1-2
(A) 178 to 180 °C

(Q) Give the reported melting point for this compound. O=C1c2ccccc2C(=O)N1CCCC#Cc1ccccn1
(A) 127 to 129 °C

(Q) Give the reported melting point for this compound. N#Cc1ccc(NC(=NS(=O)(=O)c2ccccc2)NCC(=O)O)cc1
(A) 133 °C

(Q) Give the reported melting point for this compound. Nc1nc(N)c2c(ccc3[nH]c(-c4ccccc4)cc32)n1
(A) 322 to 323 °C

(Q) Give the reported melting point for this compound. CS(=O)(=O)c1ccc(-n2cncc2-c2ccc(Cl)cc2)cc1
(A) 192 to 193 °C

(Q) Give the reported melting point for this compound. COc1cc(-c2nc(C)c(C(=O)NN)s2)cc(OC)c1OC
(A) 180 to 181 °C

(Q) Give the reported melting point for this compound. ClCCOc1ccc(OCCCl)c(Cl)c1
(A) 135 to 137 °C

(Q) Give the reported melting point for this compound. CC(C)(C)c1nc(Cl)n(-c2c(Cl)cc(Cl)cc2Cl)n1
(A) 98 to 98.5 °C

(Q) Give the reported melting point for this compound. CC(C)OC(C)c1cc2c(=O)n(NS(C)(=O)=O)c(=O)[nH]c2cc1C(F)(F)F (stereo unspecified)
(A) 110 to 115 °C

(Q) Give the reported melting point for this compound. COC(=O)c1ccc(OCCCN2C(=O)c3ccccc3C2=O)c(OC)c1
(A) 127 to 128 °C

(Q) Give the reported melting point for this compound. O=[N+]([O-])c1ccc(OS(=O)(=O)c2cccnc2Cl)cc1
(A) 127 to 128 °C
